Biological target: T1, cTnI quality control product recombinant protein (human, UniProt P19429 2-210, limits assumed)
T1 construct: treated as the same molecule; also called cTnI antigen; cardiac troponin I
T1 sequence (P19429 2-210 limits assumed): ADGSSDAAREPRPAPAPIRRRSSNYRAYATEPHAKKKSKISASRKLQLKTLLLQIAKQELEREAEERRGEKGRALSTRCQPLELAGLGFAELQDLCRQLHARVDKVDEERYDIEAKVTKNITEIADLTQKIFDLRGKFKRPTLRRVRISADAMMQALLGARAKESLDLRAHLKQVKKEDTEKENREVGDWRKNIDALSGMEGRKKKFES
Assay: AMC sensor, antibody immobilised, cTnI in solution
Measured koff accompanies every entry in the list below.

binder: Mutation 1-55 (antibody, V domains shown, Built as m8) VH: EVQLQQSGPELVKPGASVKMSCKASGYTFTIYVVHWVKQKPGQGLEWIGYIYPYIDGTKYNEKFKGKATLTVDKSSSTAFMELSSLTSEDSAVYYCARSGYGGYGLAWLAYWGQGTLVTVSA VL: QAVVIQESALTTSPGETVTLTCRSSTGAVTTSQYANWVQEKPDHLFTGLIGGSQNRAPGVPARFSGSLIGDKAALTITGAQTEDEAIYFCALVYSNNWVFGGGTKLTVLG
unitLabel: s⁻¹
koff: 0.000239

binder: Mutation 1-33 (antibody, V domains shown, Built as m8) VH: EVQLQQSGPELVKPGASVKMSCKASGYTFTLYVVHWVKQKPGQGLEWIGYIYPYIDGTKYNEKFKGKATLTVDKSSSTAFMELSSLTSEDSAVYYCARSGYGGYGLAWLAYWGQGTLVTVSA VL: QAVVIQESALTTSPGETVTLTCRSSTGAATTSQYANWVQEKPDHLFTGLIGGSQNRAPGVPARFSGSLIGDKAALTITGAQTEDEAIYFCALVYSNNWVFGGGTKLTVLG
unitLabel: s⁻¹
koff: 0.000331

binder: Mutation 1-8 (antibody, V domains shown, Built as m8) VH: EVQLQQSGPELVKPGASVKMSCKASGYTFTIYVIHWVKQKPGQGLEWIGYIQPYLDGTKYNEKFKGKATLTVDKSSSTAFMELSSLTSEDSAVYYCARSGYGGYGLAWLAYWGQGTLVTVSA VL: QAVVIQESALTTSPGETVTLTCRSSTGAATTSQYANWVQEKPDHLFTGLIGGSNNRAPGVPARFSGSLIGDKAALTITGAQTEDEAIYFCALVYSNQWVFGGGTKLTVLG
unitLabel: s⁻¹
koff: 0.000244
